Assay: Apparent permeability across basolateral to apical side in MDCK-MDR1 cells at 10 uM measured for 60 mins by LC-MS/MS analysis
Type: ADME, cell-based, Canis lupus familiaris
Details: dog, MDCK-MDR1
measured_endpoint: Papp B→A at 1 h, 10 µM
Could you write the number and then its unit?

// Papp B→A at 1 h, 10 µM lookup, molecule = `O=C(O)Cc1ccccc1Nc1c(Cl)cccc1Cl` , result: 31.2 ×10⁻⁶ cm/s

---

Test: Selectivity index, ratio of EC50 for cytotoxicity against rat L6 cells to EC50 for antitrypanosomal activity against bloodstream form of Trypanosoma brucei brucei 221a variant
Format: toxicity, cell-based
Settings: read-out: Ratio EC50
measured_endpoint: selectivity ratio

Use these answered entries as a reference point.
mol | selectivity ratio
c1cc2nc(CCCCCc3nc4ccc(C5=NCCN5)cc4s3)sc2cc1C1=NCCN1 | 60
c1cc2nc(CCc3nc4ccc(C5=NCCCN5)cc4s3)sc2cc1C1=NCCCN1 | > 59

Alright, here's another compound for you.
// selectivity ratio lookup, compound = `c1cc2nc(CCCc3nc4ccc(C5=NCCN5)cc4s3)sc2cc1C1=NCCN1` , result: > 28
